The measured values listed here are drawn from the supplement of paper PMC6555819.

# PBM binding z-score per record follows
Tested on: PPARg DBDmut:RXRa IVT, anti-PPARg (DBD mutation: PPARg1 K132A/R137A, NR concentration 270 nM, RXRa partner concentration 90 nM)
Assay: PBM binding z-score (relative to random genomic background probes); higher = stronger binding; sequences stand for … in GC…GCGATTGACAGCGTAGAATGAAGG
In your answer, state the number alone without any accompanying words.

Example entries and their recorded answers appear below.
| sequence.text | data.value |
| --- | --- |
| CCTTACGGGTCAGTCCAGGTTATAGCATCGGAGT | -0.331 |
| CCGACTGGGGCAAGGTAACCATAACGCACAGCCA | 0.115 |
| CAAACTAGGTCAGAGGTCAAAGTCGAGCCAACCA | 2.06 |
| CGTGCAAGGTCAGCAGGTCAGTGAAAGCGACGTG | -0.142 |
| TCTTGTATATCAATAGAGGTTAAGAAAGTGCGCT | 0.574 |

Q) Please give the measured PBM binding z-score for this sequence: CCTGCTAGGTCATTGTCAGCTAATCTACAGTATG
A) 0.372

Q) Please answer likewise for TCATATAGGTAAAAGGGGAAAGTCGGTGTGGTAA
A) 1.31

Q) Try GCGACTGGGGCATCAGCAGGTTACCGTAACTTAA next.
A) -0.711
